# TARGET OR TEST SYSTEM: UniProtKB Q9Y5N1
Hi there, I'd appreciate the recorded pKi for every entry that follows.
Just the number, please; pKi means minus log10 of the concentration in mol/L.

INPUT: What value of pKi has been reported for the following compound? CC(C)(C)CC(=O)N1C[C@@H](Oc2ccc(F)cc2)C[C@H]1C(=O)N1CCCN(C2CCC2)CC1 [Example 118]
OUTPUT: 6.09

INPUT: Consider the compound shown here: CN1C[C@@H](Oc2ccc(F)cc2)C[C@H]1C(=O)N1CCN(C2CCC2)CC1 [Example 107] What is its recorded pKi?
OUTPUT: 6.28

INPUT: May I ask what pKi has been recorded for CC(C)(C)OC(=O)N1CC(Oc2cccc(Cl)c2)C[C@H]1C(=O)N1CCCN(C2CCC2)CC1 (stereo partly shown) [Example 42] ?
OUTPUT: 7.62

====

# TARGET OR TEST SYSTEM: human H3 receptor (Homo sapiens, UniProt Q9Y5N1)
# Sequence (Q9Y5N1 whole entry): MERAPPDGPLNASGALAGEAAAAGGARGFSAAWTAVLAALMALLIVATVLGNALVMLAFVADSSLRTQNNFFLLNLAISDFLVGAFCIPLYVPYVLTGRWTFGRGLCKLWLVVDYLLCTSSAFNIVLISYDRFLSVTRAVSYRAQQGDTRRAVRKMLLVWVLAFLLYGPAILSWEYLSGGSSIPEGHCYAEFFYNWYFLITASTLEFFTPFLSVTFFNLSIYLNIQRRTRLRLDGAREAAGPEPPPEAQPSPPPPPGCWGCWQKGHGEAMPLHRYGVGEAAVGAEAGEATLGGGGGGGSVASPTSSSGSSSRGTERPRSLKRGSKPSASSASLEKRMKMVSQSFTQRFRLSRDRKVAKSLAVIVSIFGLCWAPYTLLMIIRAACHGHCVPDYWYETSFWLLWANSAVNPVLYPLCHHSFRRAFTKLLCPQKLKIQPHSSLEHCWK
# EXPERIMENT DESCRIPTION: H3 Receptor Binding (Human) Method 2, [125I]-iodoproxyfan competitive radioligand binding
# Set-up: expressed in transfected cells
For each of the molecules below, state its Ki.
Enter your answer as a number in nM; do not include the unit.

INPUT: Looking for the measured Ki of "CSc1ccc(O[C@@H]2CN[C@@H](C(=O)N3CCCN(C4CCC4)CC3)C2)cc1" , can you help?
OUTPUT: 3

INPUT: Record request: Ki value, item "CC(=O)N1C[C@H](Oc2cccc(F)c2)C[C@@H]1C(=O)N1CCCN(C2CCC2)CC1"
OUTPUT: 569

INPUT: Requested read-out: Ki. Entry: "CC(=O)N1C[C@@H](Oc2cccc(F)c2)C[C@@H]1C(=O)N1CCCN(C2CCC2)CC1"
OUTPUT: 2

INPUT: Which Ki is reported for this molecule? "O=C([C@H]1C[C@H](Oc2ccccn2)CN1)N1CCCN(C2CCC2)CC1"
OUTPUT: 5

====

# TARGET OR TEST SYSTEM: human H3 receptor (Homo sapiens, UniProt Q9Y5N1)
# EXPERIMENT DESCRIPTION: H3 Receptor Binding (Human) Method 2, [125I]-iodoproxyfan competitive radioligand binding
# Set-up: expressed in transfected cells
# MEASUREMENT PARAMETERS: read-out: Human H3 Ki
Give measured Ki for each item. Keep answers brief.
# value in nM; strip the unit string

INPUT: Give human H3 receptor (Homo sapiens, UniProt Q9Y5N1) Ki for "CS(=O)(=O)N1C[C@@H](Oc2ccc(F)cc2)C[C@@H]1C(=O)N1CCCN(C2CCC2)CC1"
OUTPUT: 1

INPUT: Under human H3 receptor (Homo sapiens, UniProt Q9Y5N1): Ki value of "CC(=O)N1C[C@@H](Oc2ccc(Cl)c(C)c2)C[C@@H]1C(=O)N1CCCN(C2CCC2)CC1" ?
OUTPUT: 1

INPUT: What Ki appears in the records for this compound with human H3 receptor (Homo sapiens, UniProt Q9Y5N1)? "CCN1C[C@@H](Oc2ccc(F)cc2)C[C@H]1C(=O)N1CCCN(C2CCC2)CC1"
OUTPUT: 55

INPUT: Query for human H3 receptor (Homo sapiens, UniProt Q9Y5N1): what Ki does the record show for "CN(C)[C@H]1CCN(C(=O)[C@H]2C[C@H](Oc3cccc(F)c3)CN2)C1" ?
OUTPUT: 1300

Cited source: patent US8236792B2
